Values compiled from patent US20240059799A1.

# TARGET_OR_SYSTEM: T1, recombinant human TL1A (human, UniProt O95150 71-251)
# T1 construct: homotrimer; biotinylated for SPR capture; the ELISA paragraphs say only 'recombinant TL1A'; also called TNFSF15
# T1 chain: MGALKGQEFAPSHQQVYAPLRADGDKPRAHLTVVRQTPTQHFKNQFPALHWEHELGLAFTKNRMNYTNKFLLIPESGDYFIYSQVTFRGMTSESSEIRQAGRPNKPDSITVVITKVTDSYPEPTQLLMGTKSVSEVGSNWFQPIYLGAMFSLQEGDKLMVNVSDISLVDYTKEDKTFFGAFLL
# PROTOCOL_DESCRIPTION: competition ELISA vs bio-TL1A-0002
binders and their reported IC50

[
  {
    "BINDER": "TL1A-0092 (antibody, IgG1, V domains shown, IgG1/kappa variant of TL1A-0002) VH: QVQLVQSGAEVKKPGASVKVSCKASGYDFTYYGISWVRQAPGQGLEWMGWISTYNTVTHYAPSLQGRVTMTTDTSTRTAYMELRSLRSDDTAVYYCARENYYGSGAYRGGMDVWGQGTTVTVSS VL: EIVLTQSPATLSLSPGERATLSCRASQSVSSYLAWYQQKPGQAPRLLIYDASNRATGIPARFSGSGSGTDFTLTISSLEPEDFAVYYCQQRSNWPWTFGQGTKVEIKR",
    "IC50 / nM": 5.2
  },
  {
    "BINDER": "TL1A-0021 (antibody, IgG1, V domains shown, IgG1/kappa variant of TL1A-0002) VH: QVQLVQSGAEVKKPGASVKVSCKASGYDFTYYGISWVRQAPGQGLEWMGWISTYNGNDHYARMLQGRVTMTTDTSTRTAYMELRSLRSDDTAVYYCARENYYGSGAYRGGMDVWGQGTTVTVSS VL: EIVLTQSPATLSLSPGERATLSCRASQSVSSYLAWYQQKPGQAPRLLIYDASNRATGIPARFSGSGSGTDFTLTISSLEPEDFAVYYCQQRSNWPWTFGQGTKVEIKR",
    "IC50 / nM": 6
  },
  {
    "BINDER": "TL1A-0033 (antibody, IgG1, V domains shown, IgG1/kappa variant of TL1A-0002) VH: QVQLVQSGAEVKKPGASVKVSCKASGYDFTYYGISWVRQAPGQGLEWMGWISTYNGNTHYARMLQGRVTMTTDTSTRTAYMELRSLRSDDTAVYYCARENYYGSGAFRGGMDVWGQGTTVTVSS VL: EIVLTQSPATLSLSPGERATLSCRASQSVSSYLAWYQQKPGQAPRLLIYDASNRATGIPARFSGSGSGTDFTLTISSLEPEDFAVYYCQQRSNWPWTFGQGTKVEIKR",
    "IC50 / nM": 3.6
  },
  {
    "BINDER": "TL1A-0067 (antibody, IgG1, V domains shown, IgG1/kappa variant of TL1A-0002) VH: QVQLVQSGAEVKKPGASVKVSCKASGYDFTFYGISWVRQAPGQGLEWMGWISTYNGNTHYARMLQGRVTMTTDTSTRTAYMELRSLRSDDTAVYYCARENYYGSGAYRGGMDVWGQGTTVTVSS VL: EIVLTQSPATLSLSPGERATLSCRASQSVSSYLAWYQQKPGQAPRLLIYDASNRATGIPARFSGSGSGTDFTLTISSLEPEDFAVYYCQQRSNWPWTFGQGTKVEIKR",
    "IC50 / nM": 5.1
  },
  {
    "BINDER": "TL1A-0013 (antibody, IgG1, V domains shown, IgG1/kappa variant of TL1A-0002) VH: QVQLVQSGAEVKKPGASVKVSCKASGYDFTYYGISWVRQAPGQGLEWMGWISTYNGNTHYAPSLQGRVTMTTDTSTRTAYMELRSLRSDDTAVYYCARENYYGSGAYRGGMDVWGQGTTVTVSS VL: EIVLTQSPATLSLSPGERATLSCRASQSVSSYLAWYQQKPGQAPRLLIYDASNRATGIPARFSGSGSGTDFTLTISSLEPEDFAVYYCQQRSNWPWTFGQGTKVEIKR",
    "IC50 / nM": 5.5
  },
  {
    "BINDER": "TL1A-0040 (antibody, IgG1, V domains shown, IgG1/kappa variant of TL1A-0002) VH: QVQLVQSGAEVKKPGASVKVSCKASGYDFTYYGISWVRQAPGQGLEWMGWISTYNGNTHYARMLQGRVTMTTDTSTRTAYMELRSLRSDDTAVYYCARENYYGSGDHRGGMDVWGQGTTVTVSS VL: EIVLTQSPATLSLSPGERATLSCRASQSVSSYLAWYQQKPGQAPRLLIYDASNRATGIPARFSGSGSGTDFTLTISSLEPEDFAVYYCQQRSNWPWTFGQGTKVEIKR",
    "IC50 / nM": 4.7
  },
  {
    "BINDER": "TL1A-0091 (antibody, IgG1, V domains shown, IgG1/kappa variant of TL1A-0002) VH: QVQLVQSGAEVKKPGASVKVSCKASGYDFTYYGISWVRQAPGQGLEWMGWISTYNTVTHYAQKLQGRVTMTTDTSTRTAYMELRSLRSDDTAVYYCARENYYGSGAYRGGMDVWGQGTTVTVSS VL: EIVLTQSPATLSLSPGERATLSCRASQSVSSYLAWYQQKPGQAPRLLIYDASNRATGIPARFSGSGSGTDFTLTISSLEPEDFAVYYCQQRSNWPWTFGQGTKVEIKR",
    "IC50 / nM": 5.4
  },
  {
    "BINDER": "TL1A-0027 (antibody, IgG1, V domains shown, IgG1/kappa variant of TL1A-0002) VH: QVQLVQSGAEVKKPGASVKVSCKASGYDFTYYGISWVRQAPGQGLEWMGWISAYNGNTNYAQKLQGRVTMTTDTSTRTAYMELRSLRSDDTAVYYCARENYYGSGAYRGGMDVWGQGTTVTVSS VL: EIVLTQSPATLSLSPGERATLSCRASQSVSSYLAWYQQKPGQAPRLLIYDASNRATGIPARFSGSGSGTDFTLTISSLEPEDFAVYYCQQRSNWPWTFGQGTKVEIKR",
    "IC50 / nM": 8.3
  },
  {
    "BINDER": "TL1A-0094 (antibody, IgG1, V domains shown, IgG1/kappa variant of TL1A-0002) VH: QVQLVQSGAEVKKPGASVKVSCKASGYDFTYYGISWVRQAPGQGLEWMGWISTYNGNTHYARMLQGRVTMTTDTSTRTAYMELRSLRSDDTAVYYCARESYYGSGAYRGGMDVWGQGTTVTVSS VL: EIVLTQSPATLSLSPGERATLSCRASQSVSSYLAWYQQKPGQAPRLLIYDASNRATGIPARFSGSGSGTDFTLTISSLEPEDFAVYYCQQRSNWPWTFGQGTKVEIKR",
    "IC50 / nM": 5.5
  },
  {
    "BINDER": "TL1A-0087 (antibody, IgG1, V domains shown, IgG1/kappa variant of TL1A-0002) VH: QVQLVQSGAEVKKPGASVKVSCKASGYDFTYYGISWVRQAPGQGLEWMGWISAYNGNTHYAPSLQGRVTMTTDTSTRTAYMELRSLRSDDTAVYYCARENYYGSGAYRGGMDVWGQGTTVTVSS VL: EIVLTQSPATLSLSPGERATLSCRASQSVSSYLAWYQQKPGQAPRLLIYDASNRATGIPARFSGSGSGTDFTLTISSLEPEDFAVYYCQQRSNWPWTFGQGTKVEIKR",
    "IC50 / nM": 4.8
  }
]
